target: human ether-à-go-go-related gene (hERG) potassium channel (human, UniProt Q12809); assay: primary screen, population patch clamp on CHO cells stably expressing hERG; higher = less effect of the substance
Sequence (Q12809 whole entry, looked up): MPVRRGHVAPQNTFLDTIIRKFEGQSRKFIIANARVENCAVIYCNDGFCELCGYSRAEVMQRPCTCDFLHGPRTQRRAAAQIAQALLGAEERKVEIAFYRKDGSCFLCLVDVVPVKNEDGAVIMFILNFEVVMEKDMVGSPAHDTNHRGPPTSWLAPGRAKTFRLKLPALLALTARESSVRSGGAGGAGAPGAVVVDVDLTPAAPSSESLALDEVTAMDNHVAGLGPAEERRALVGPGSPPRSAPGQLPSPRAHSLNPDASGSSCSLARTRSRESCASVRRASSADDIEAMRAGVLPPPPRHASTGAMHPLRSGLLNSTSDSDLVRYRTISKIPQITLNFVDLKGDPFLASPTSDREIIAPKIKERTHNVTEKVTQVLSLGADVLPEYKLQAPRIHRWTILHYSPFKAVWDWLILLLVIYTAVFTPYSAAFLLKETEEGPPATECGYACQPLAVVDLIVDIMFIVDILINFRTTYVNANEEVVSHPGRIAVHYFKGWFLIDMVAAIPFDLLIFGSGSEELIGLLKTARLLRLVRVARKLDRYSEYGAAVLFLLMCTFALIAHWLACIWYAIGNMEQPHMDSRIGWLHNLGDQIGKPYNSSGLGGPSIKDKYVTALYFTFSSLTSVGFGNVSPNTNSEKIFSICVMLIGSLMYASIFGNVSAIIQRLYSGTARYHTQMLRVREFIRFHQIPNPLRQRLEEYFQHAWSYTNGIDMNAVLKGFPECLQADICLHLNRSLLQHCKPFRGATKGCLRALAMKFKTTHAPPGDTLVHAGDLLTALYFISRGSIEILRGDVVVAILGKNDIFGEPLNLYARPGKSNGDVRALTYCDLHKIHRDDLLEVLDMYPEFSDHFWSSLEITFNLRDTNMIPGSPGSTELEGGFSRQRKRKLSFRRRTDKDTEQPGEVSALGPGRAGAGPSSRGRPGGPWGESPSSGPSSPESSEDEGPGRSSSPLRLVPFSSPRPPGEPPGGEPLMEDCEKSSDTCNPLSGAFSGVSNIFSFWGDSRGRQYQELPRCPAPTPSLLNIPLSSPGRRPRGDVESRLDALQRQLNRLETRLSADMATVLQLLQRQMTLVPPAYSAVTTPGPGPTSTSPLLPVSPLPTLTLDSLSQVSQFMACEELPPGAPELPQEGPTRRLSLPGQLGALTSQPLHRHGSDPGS
About 14,000 (4.5%) of roughly 310,000 compounds showed an effect of 50% or more. The effect is printed as a negative number. Many of the other results were omitted from the sample, so strong results are more common in it than they were.
reported_metric: hERG current change (%, negative = inhibition) at 10uM (%)
# number only, unit % dropped from output

Illustrative cases are given below, each with its answer.
compound: Nc1ccc(-c2cc(N)n(-c3ccccc3)n2)cc1
test_target: human ether-à-go-go-related gene (hERG) potassium channel (human, UniProt Q12809)
measured_value: 0.669
--
compound: COc1ccc(NC(=O)N2CCN(c3cccc(C(F)(F)F)c3)CC2)cc1OC
test_target: human ether-à-go-go-related gene (hERG) potassium channel (human, UniProt Q12809);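 further: peak tail current of the secondary pulse compared with the same well before compound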
measured_value: -1.73
--
compound: CSc1ccc(C2Nc3ccccc3-c3cc(C)nn32)cc1 (stereo not shown)
test_target: human ether-à-go-go-related gene (hERG) potassium channel (human, UniProt Q12809);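 further: peak tail current of the secondary pulse compared with the same well before compound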
measured_value: -3.75
--
compound: CN(C(=O)N1CCN(c2ccccn2)CC1)c1ccccc1
test_target: human ether-à-go-go-related gene (hERG) potassium channel (human, UniProt Q12809);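 further: peak tail current of the secondary pulse compared with the same well before compound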
measured_value: 7.47
--
compound: CCCC(=O)N/C(N)=N/c1nc(C)c2cc(C)ccc2n1
test_target: human ether-à-go-go-related gene (hERG) potassium channel (human, UniProt Q12809);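 further: peak tail current of the secondary pulse compared with the same well before compound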
measured_value: -23.8

Which hERG current change (%, negative = inhibition) at 10uM value is on record for CCOC(=O)C1CCN(C(=O)c2cn(C)c(=O)c3cc(OC)c(OC)cc23)CC1 ?
-11.3

Which hERG current change (%, negative = inhibition) at 10uM value is on record for COc1ccccc1NC(=O)N1CCN(c2cccc(C(F)(F)F)c2)CC1 ?
-76.6
